EXPERIMENT DESCRIPTION: Acute Toxicity Test
CONDITION SET: mouse, in vivo; oral, suspension, male ICR mice
MEASURE NAME: LD50

1. CCOC(=O)c1cc(=O)c2c(OCC(COc3cccc4oc(C(=O)OCC)cc(=O)c34)OC(=O)CC(C)=O)cccc2o1 [Example 1, Diethyl Acetoacetylcromoglycate] :: > 1000 mg/kg

# credit: patent US6262108A
